Measured values drawn from ChEMBL document CHEMBL1122738 for this set.

# Species: Rattus norvegicus
# assay-explanation: Minimum effective concentration required to abolish the response to an ED75 dose of ANG II (10e-8 M) in the isolated rat uterus assay
# Type: functional
# protocol-conditions: read-out: MEC
Positions of bridges follow the written chain, without caps; N, C: chain ends. Residues, ends and D or L forms follow the SMILES beside them. Chains are numbered I, II in the order given.

molecule	minimal effective concentration
CC[C@H](C)[C@H](NC(=O)[C@@H]1CCCN1C(=O)[C@H](Cc1c[nH]cn1)NC(=O)[C@@H](NC(=O)[C@H](Cc1ccc(O)cc1)NC(=O)[C@@H](NC(=O)[C@H](CCCN=C(N)N)NC(=O)CNC)C(C)C)[C@@H](C)CC)C(=O)O	0.021 µM
CC[C@H](C)[C@H](NC(=O)[C@H](Cc1ccc(O)cc1)NC(=O)[C@@H](NC(=O)[C@H](CCCN=C(N)N)NC(=O)[C@@H](N)CSCNC(C)=O)C(C)C)C(=O)N[C@@H](Cc1c[nH]cn1)C(=O)N1CCC[C@H]1C(=O)N[C@@H](CSCNC(C)=O)C(=O)O	0.24 µM
CC[C@H](C)[C@@H]1NC(=O)[C@H](Cc2ccc(O)cc2)NC(=O)[C@H](C(C)C)NC(=O)[C@H](CCCN=C(N)N)NC(=O)[C@@H](N)CSSC[C@@H](C(=O)O)NC(=O)[C@@H]2CCCN2C(=O)[C@H](Cc2c[nH]cn2)NC1=O (H-CRVYIHPC-OH; disulfide 1-8)	3.3 µM
CC[C@H](C)[C@@H]1NC(=O)[C@H](Cc2ccc(O)cc2)NC(=O)[C@H](C(C)C)NC(=O)[C@H](CCCN=C(N)N)NC(=O)[C@@H](N)CSSC[C@H](N)C(=O)N[C@@H](CCCN=C(N)N)C(=O)N[C@@H](C(C)C)C(=O)N[C@@H](Cc2ccc(O)cc2)C(=O)N[C@@H]([C@@H](C)CC)C(=O)N[C@@H](Cc2c[nH]cn2)C(=O)N2CCC[C@H]2C(=O)N[C@H](C(=O)O)CSSC[C@@H](C(=O)O)NC(=O)[C@@H]2CCCN2C(=O)[C@H](Cc2c[nH]cn2)NC1=O (I: H-CRVYIHPC-OH / II: H-CRVYIHPC-OH; disulfide I:1-II:1, I:8-II:8)	9.6 µM
